The reported measurements were obtained from PubChem BioAssay AID1963433.

- System: 772245-204-R-J1-PDC complex spheroid growth
- protocol_summary: Anticancer human tumor 772245-204-R-J1-PDC patient-derived rhabdomyosarcoma cell line growth inhibition [Asc]
- condition_parameters: curve of first compound; second compound 3 µM
Recorded IC50 for the following molecules
# output: bare number, implied unit nM

# count of solved cases: 3
State, in one line, measured IC50 of C=C(F)C(=O)N1CCN(c2nc(OCC3CCCN3C)nc3c2CCN(c2cccc4cccc(Cl)c24)C3)CC1CC#N (centres undefined) + CCN1C(C(=O)NC23CCC(C(=O)O)(CC2)CC3)C(c2cccc(Cl)c2F)C2(C(=O)Nc3cc(Cl)ccc32)C12CCCCC2 2110

Respond only with IC50 recorded for CNC(C)C(=O)NC1CN(S(=O)(=O)c2cccc(S(=O)(=O)N3CCC4CCC(C(=O)NC(c5ccccc5)c5ccccc5)N4C(=O)C(NC(=O)C(C)NC)C3)c2)CCC2CCC(C(=O)NC(c3ccccc3)c3ccccc3)N2C1=O (centres undefined) + CCN1C(C(=O)NC23CCC(C(=O)O)(CC2)CC3)C(c2cccc(Cl)c2F)C2(C(=O)Nc3cc(Cl)ccc32)C12CCCCC2 577

Name the recorded IC50 of the item COc1c(OCCCN2CCOCC2)ccc2c3n(c(=NC(=O)c4cnc(N)nc4)nc12)CCN3 + CCN1C(C(=O)NC23CCC(C(=O)O)(CC2)CC3)C(c2cccc(Cl)c2F)C2(C(=O)Nc3cc(Cl)ccc32)C12CCCCC2 in your answer. 51.4

New cases:
Tell me measured IC50 for Cc1nc(N2CCC3(CC2)COC(C)C3N)c(CO)nc1Sc1ccnc(N)c1Cl (centres undefined) + CCN1C(C(=O)NC23CCC(C(=O)O)(CC2)CC3)C(c2cccc(Cl)c2F)C2(C(=O)Nc3cc(Cl)ccc32)C12CCCCC2 please. 2740

Give IC50 for the following molecule: NC(=O)C(=Cn1cnc(-c2cc(C(F)(F)F)cc(C(F)(F)F)c2)n1)c1cncnc1 + CCN1C(C(=O)NC23CCC(C(=O)O)(CC2)CC3)C(c2cccc(Cl)c2F)C2(C(=O)Nc3cc(Cl)ccc32)C12CCCCC2 14.5

* * *

We begin with a simple list: items and their reported pIC50.
- Test system: 772245-204-R-J1-PDC complex spheroid growth
- protocol_summary: Anticancer human tumor 772245-204-R-J1-PDC cell line growth inhibition [Asc];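 also: compound exposure lasted seven days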
- condition_parameters: curve of first compound; second compound 0.316 µM
pIC50 here is simply -log10 of the concentration when that concentration is written in mol/L.

State its pIC50 for this molecule: Cn1ncnc1[C@H]1c2n[nH]c(=O)c3cc(F)cc(c23)N[C@@H]1c1ccc(F)cc1 + Cc1c(S(C)(=O)=O)c(-c2cc(F)cc(N3CCN(c4ccc(NS(=O)(=O)c5ccc(NC(CCN6CCC(C(=O)OCCCP(=O)(O)O)CC6)CSc6ccccc6)c(S(=O)(=O)C(F)(F)F)c5)cc4)CC3)c2)c(-c2ccc(Cl)cc2)n1C(C)C 8.42

Now look at this entry.
Give pIC50 for CCN1CCN(Cc2ccc(Nc3ncc(F)c(-c4cc(F)c5nc(C)n(C(C)C)c5c4)n3)nc2)CC1 + Cc1c(S(C)(=O)=O)c(-c2cc(F)cc(N3CCN(c4ccc(NS(=O)(=O)c5ccc(NC(CCN6CCC(C(=O)OCCCP(=O)(O)O)CC6)CSc6ccccc6)c(S(=O)(=O)C(F)(F)F)c5)cc4)CC3)c2)c(-c2ccc(Cl)cc2)n1C(C)C 6.36

* * *

- Tested on: 772245-204-R-J1-PDC complex spheroid growth
- protocol_summary: Anticancer human tumor 772245-204-R-J1-PDC cell line growth inhibition [Asc];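 also: compound exposure lasted seven days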;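 as to viability, T/C: 100% = DMSO vehicle control viability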
- condition_parameters: second compound 3.16 µM; first compound 10 µM; stronger effect = lower value
Entries annotated with measured viability, T/C
Return type: number; implicit unit %.

Below, each entry is followed by its recorded viability, T/C result.
For the compound O=C(c1cc(Cc2n[nH]c(=O)c3ccccc23)ccc1F)N1CCN(C(=O)C2CC2)CC1 + Cc1c(S(C)(=O)=O)c(-c2cc(F)cc(N3CCN(c4ccc(NS(=O)(=O)c5ccc(NC(CCN6CCC(C(=O)OCCCP(=O)(O)O)CC6)CSc6ccccc6)c(S(=O)(=O)C(F)(F)F)c5)cc4)CC3)c2)c(-c2ccc(Cl)cc2)n1C(C)C , give its reported viability, T/C. 2.64

# return recorded viability, T/C for input C=CC(=O)N1CCN(c2nc(=O)n(-c3c(C)ccnc3C(C)C)c3nc(-c4c(O)cccc4F)c(F)cc23)C(C)C1 (centres undefined) + Cc1c(S(C)(=O)=O)c(-c2cc(F)cc(N3CCN(c4ccc(NS(=O)(=O)c5ccc(NC(CCN6CCC(C(=O)OCCCP(=O)(O)O)CC6)CSc6ccccc6)c(S(=O)(=O)C(F)(F)F)c5)cc4)CC3)c2)c(-c2ccc(Cl)cc2)n1C(C)C 5.71

Note viability, T/C for the compound shown: C#Cc1c(F)ccc2cc(O)cc(-c3ncc4c(N5CC6CCC(C5)N6)nc(OCC56CCCN5CC(F)C6)nc4c3F)c12 (centres undefined) + Cc1c(S(C)(=O)=O)c(-c2cc(F)cc(N3CCN(c4ccc(NS(=O)(=O)c5ccc(NC(CCN6CCC(C(=O)OCCCP(=O)(O)O)CC6)CSc6ccccc6)c(S(=O)(=O)C(F)(F)F)c5)cc4)CC3)c2)c(-c2ccc(Cl)cc2)n1C(C)C 13.8

From here, focus on the item given below.
Please list viability, T/C recorded for the compound C=C(F)C(=O)N1CCN(c2nc(OCC3CCCN3C)nc3c2CCN(c2cccc4cccc(Cl)c24)C3)CC1CC#N (centres undefined) + Cc1c(S(C)(=O)=O)c(-c2cc(F)cc(N3CCN(c4ccc(NS(=O)(=O)c5ccc(NC(CCN6CCC(C(=O)OCCCP(=O)(O)O)CC6)CSc6ccccc6)c(S(=O)(=O)C(F)(F)F)c5)cc4)CC3)c2)c(-c2ccc(Cl)cc2)n1C(C)C 0.11

* * *

- System: 772245-204-R-J1-PDC complex spheroid growth
- protocol_summary: Anticancer human tumor 772245-204-R-J1-PDC cell line growth inhibition [Asc];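 also: compound exposure lasted seven days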;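 as to viability, T/C: 100% = DMSO vehicle control viability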
- condition_parameters: second compound 0.316 µM; first compound 0.01 µM; stronger effect = lower value
The entries below come with measured viability, T/C values attached.
Your answer is read as %, so omit the unit and give the number.

Answered examples (3):
Supply measured viability, T/C of CCN1CCN(Cc2ccc(Nc3ncc(F)c(-c4cc(F)c5nc(C)n(C(C)C)c5c4)n3)nc2)CC1 + CNC(C)C(=O)NC1CN(S(=O)(=O)c2cccc(S(=O)(=O)N3CCC4CCC(C(=O)NC(c5ccccc5)c5ccccc5)N4C(=O)C(NC(=O)C(C)NC)C3)c2)CCC2CCC(C(=O)NC(c3ccccc3)c3ccccc3)N2C1=O in your reply. 94.1

Provide measured viability, T/C value, entry: O=C(c1ccc(F)c(F)c1Nc1ccc(I)cc1F)N1CC(O)([C@@H]2CCCCN2)C1 + CNC(C)C(=O)NC1CN(S(=O)(=O)c2cccc(S(=O)(=O)N3CCC4CCC(C(=O)NC(c5ccccc5)c5ccccc5)N4C(=O)C(NC(=O)C(C)NC)C3)c2)CCC2CCC(C(=O)NC(c3ccccc3)c3ccccc3)N2C1=O 88.1

Please indicate viability, T/C recorded for COc1c(OCCCN2CCOCC2)ccc2c3n(c(=NC(=O)c4cnc(N)nc4)nc12)CCN3 + CNC(C)C(=O)NC1CN(S(=O)(=O)c2cccc(S(=O)(=O)N3CCC4CCC(C(=O)NC(c5ccccc5)c5ccccc5)N4C(=O)C(NC(=O)C(C)NC)C3)c2)CCC2CCC(C(=O)NC(c3ccccc3)c3ccccc3)N2C1=O 93.8

Consider the additional compound presented here.
Quote viability, T/C reported for Cn1ncnc1[C@H]1c2n[nH]c(=O)c3cc(F)cc(c23)N[C@@H]1c1ccc(F)cc1 + CNC(C)C(=O)NC1CN(S(=O)(=O)c2cccc(S(=O)(=O)N3CCC4CCC(C(=O)NC(c5ccccc5)c5ccccc5)N4C(=O)C(NC(=O)C(C)NC)C3)c2)CCC2CCC(C(=O)NC(c3ccccc3)c3ccccc3)N2C1=O please. 82.2

* * *

Property: viability, T/C; scope: individual compounds
- System: 772245-204-R-J1-PDC complex spheroid growth
- protocol_summary: Anticancer human tumor 772245-204-R-J1-PDC cell line growth inhibition [Asc];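 also: compound exposure lasted seven days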;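 as to viability, T/C: 100% = DMSO vehicle control viability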
- condition_parameters: second compound 3 µM; first compound 0.01 µM; stronger effect = lower value
Report the value in % with no unit label.

# count of solved cases: 5
Look up and state reported viability, T/C for CNC(C)C(=O)NC1CN(S(=O)(=O)c2cccc(S(=O)(=O)N3CCC4CCC(C(=O)NC(c5ccccc5)c5ccccc5)N4C(=O)C(NC(=O)C(C)NC)C3)c2)CCC2CCC(C(=O)NC(c3ccccc3)c3ccccc3)N2C1=O (stereo unspecified) + CCN1C(C(=O)NC23CCC(C(=O)O)(CC2)CC3)C(c2cccc(Cl)c2F)C2(C(=O)Nc3cc(Cl)ccc32)C12CCCCC2 62.2

Report measured viability, T/C; entry is NC1CCC(NC2CC2c2ccccc2)CC1 (stereo unspecified) + CCN1C(C(=O)NC23CCC(C(=O)O)(CC2)CC3)C(c2cccc(Cl)c2F)C2(C(=O)Nc3cc(Cl)ccc32)C12CCCCC2 77.9

Give the measured viability, T/C for CCN1CCN(Cc2ccc(Nc3ncc(F)c(-c4cc(F)c5nc(C)n(C(C)C)c5c4)n3)nc2)CC1 + CCN1C(C(=O)NC23CCC(C(=O)O)(CC2)CC3)C(c2cccc(Cl)c2F)C2(C(=O)Nc3cc(Cl)ccc32)C12CCCCC2 84.7

Answer with reported viability, T/C of Cn1ncnc1[C@H]1c2n[nH]c(=O)c3cc(F)cc(c23)N[C@@H]1c1ccc(F)cc1 + CCN1C(C(=O)NC23CCC(C(=O)O)(CC2)CC3)C(c2cccc(Cl)c2F)C2(C(=O)Nc3cc(Cl)ccc32)C12CCCCC2 65.9

In one line, give reported viability, T/C of the entry O=C(c1ccc(F)c(F)c1Nc1ccc(I)cc1F)N1CC(O)([C@@H]2CCCCN2)C1 + CCN1C(C(=O)NC23CCC(C(=O)O)(CC2)CC3)C(c2cccc(Cl)c2F)C2(C(=O)Nc3cc(Cl)ccc32)C12CCCCC2 . 87.1

Now for the compound whose viability, T/C we want.
# return recorded viability, T/C for entry COc1c(OCCCN2CCOCC2)ccc2c3n(c(=NC(=O)c4cnc(N)nc4)nc12)CCN3 + CCN1C(C(=O)NC23CCC(C(=O)O)(CC2)CC3)C(c2cccc(Cl)c2F)C2(C(=O)Nc3cc(Cl)ccc32)C12CCCCC2 78.5
